Molecular target: hHv1 (human voltage-gated proton channel) (Homo sapiens, UniProt Q96D96)
Construct: no truncation stated
Sequence (Q96D96 1-273): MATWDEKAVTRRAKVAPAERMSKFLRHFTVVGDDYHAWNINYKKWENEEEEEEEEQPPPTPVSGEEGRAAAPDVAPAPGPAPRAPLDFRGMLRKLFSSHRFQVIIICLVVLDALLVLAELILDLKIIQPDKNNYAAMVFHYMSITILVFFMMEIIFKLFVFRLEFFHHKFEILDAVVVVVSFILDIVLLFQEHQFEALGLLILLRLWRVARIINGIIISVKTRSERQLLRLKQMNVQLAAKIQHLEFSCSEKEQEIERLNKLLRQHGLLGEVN
Assay: liposome proton flux assay (ACMA quenching), Hill fit
Conditions: read-out: half activation concentration (Kd)
pEC50: −log10 of the molar value.

MOLECULE	pEC50
CCCCC/C=C\C/C=C\C/C=C\C/C=C\CCCC(=O)O [arachidonic acid]	5.14
